- Target Under Test: human Dopamine D1 receptor (Homo sapiens, UniProt P21728)
- Construct: expressed in transfected cells; host or cells: Ltk- cells (mouse fibroblasts), membrane preparation
- Sequence (P21728 whole entry): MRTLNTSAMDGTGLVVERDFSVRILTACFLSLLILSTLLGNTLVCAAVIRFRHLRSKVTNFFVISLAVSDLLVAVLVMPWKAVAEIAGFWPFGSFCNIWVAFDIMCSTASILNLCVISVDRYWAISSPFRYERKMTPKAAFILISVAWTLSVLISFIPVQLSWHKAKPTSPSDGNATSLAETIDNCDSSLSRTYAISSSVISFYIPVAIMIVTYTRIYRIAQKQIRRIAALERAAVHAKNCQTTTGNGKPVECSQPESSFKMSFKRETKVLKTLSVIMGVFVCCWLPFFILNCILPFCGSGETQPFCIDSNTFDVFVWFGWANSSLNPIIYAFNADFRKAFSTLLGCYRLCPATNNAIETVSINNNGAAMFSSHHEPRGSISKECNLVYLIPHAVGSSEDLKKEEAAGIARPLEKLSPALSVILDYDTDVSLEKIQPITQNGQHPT
- Measurement Notes: radioligand binding competition assay, displacement of [3H]SCH 23390 from D1 receptor (Ltk-cells membranes);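 for D1 binding and D2:D1 Selectivity: under 5 nM class also requires D2 to D1 selectivity above 500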
- Test Conditions: class combines Ki (D1) and, for A and B, D2:D1 selectivity (Ki D2 / Ki D1); read-out: D1 binding and D2:D1 Selectivity
Parameter Measured: Ki

Field: example entries. Status: answers known.
> print(dat)
                                   molecule       obs.value
1  CC(C)(C)c1ccc(/C=C/C(=N)Nc2ccc(Cl)cc2)cc1     10 to 50 nM
2     COc1cccc(OC)c1/C=C/C(=N)Nc1ccc(Cl)cc1  50 to 10000 nM
3     N=C(/C=C/c1cccc2ccccc12)Nc1ccc(Cl)cc1  50 to 10000 nM
4  CN1c2ccccc2Sc2cc(/C=C/C(=N)Nc3ccc(Cl)cc3)ccc21     10 to 50 nM
5  CN1CCN(c2ccc(/C=C/C(=N)Nc3ccc(Cl)cc3)c(Cl)c2)CC1         < 10 nM
6      COc1cccc2ccc(C(=N)Nc3ccc(Cl)cc3)nc12  50 to 10000 nM

Report Ki for CCC1CCC(N2CCN(c3ccc(/C=C/C(=N)Nc4ccc(Cl)cc4)c(Cl)c3)CC2)CC1 (centres unmarked) please.
10 to 50 nM

What do we get for `N=C(/C=C/c1ccc(CN2CCOCC2)cc1)Nc1ccc(Cl)cc1` ?
50 to 10000 nM

What do we get for `CC(=O)c1ccc(-c2ccc(/C=C/C(=N)Nc3ccc(Cl)cc3)cc2)cc1` ?
10 to 50 nM

What do we get for `CCN(CC)c1ccc(/C=C/C(=N)Nc2ccc(Cl)cc2)c(Cl)c1` ?
< 10 nM

What do we get for `N=C(/C=C/c1ccc(CN2CCCCC2)cc1)Nc1ccc(Cl)cc1` ?
50 to 10000 nM

* * *

- Target Under Test: human Dopamine D1 receptor (Homo sapiens, UniProt P21728)
- Construct: expressed in transfected cells; host or cells: Ltk- cells (mouse fibroblasts), membrane preparation
- Measurement Notes: radioligand binding competition assay, displacement of [3H]SCH 23390 from D1 receptor (Ltk-cells membranes);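 for D1 binding and D2:D1 Selectivity: under 5 nM class also requires D2 to D1 selectivity above 500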
- Test Conditions: class combines Ki (D1) and, for A and B, D2:D1 selectivity (Ki D2 / Ki D1); read-out: D1 binding and D2:D1 Selectivity
pKi: −log10 of the molar value.
Parameter Measured: pKi

Field: example entries. Status: answers known.
> print(dat)
                                   compound  parameter.measured     obs.value
1  COc1cc(N(C)C)ccc1/C=C/C(=N)Nc1ccc(Cl)cc1                 pKi  7.30 to 8.00
2  N=C(Nc1ccc(Cl)cc1)c1ccc2cc(N3CCN(C4CCCCC4)CC3)ccc2c1                 pKi  5.00 to 7.30
3    COc1ccc(/C=C/C(=N)Nc2ccc(F)c(Cl)c2)cc1                 pKi  5.00 to 7.30
4  CN1CCN(Cc2ccc(-c3ccc(/C=C/C(=N)Nc4ccc(Cl)cc4)cc3)cc2)CC1                 pKi  7.30 to 8.00
5  N=C(/C=C/c1ccc(CNCc2ccccc2)cc1)Nc1ccc(Cl)cc1                 pKi  5.00 to 7.30

Report pKi for `N=C(/C=C/c1ccc2c(c1)OCCO2)Nc1ccc(Cl)cc1` please.
5.00 to 7.30

What do we get for `COc1ccc(/C=C/C(=N)Nc2ccc(Cl)cc2)c(F)c1` ?
7.30 to 8.00

What do we get for `N=C(/C=C/c1ccc(Cl)c([N+](=O)[O-])c1)Nc1ccc(Cl)cc1` ?
5.00 to 7.30

What do we get for `COc1ccc2cc(C(=N)Nc3ccc(Cl)cc3F)ccc2c1` ?
5.00 to 7.30

What do we get for `COc1ccc(/C=C/C(=N)Nc2cccc(C)c2)cc1` ?
5.00 to 7.30

What do we get for CC1CCCCN1c1ccc(/C=C/C(=N)Nc2ccc(Cl)cc2)c(Cl)c1 (stereo not drawn) ?
> 8.00

What do we get for `COc1ccc(/C=C/C(=N)Nc2cccc([N+](=O)[O-])c2)cc1` ?
5.00 to 7.30

What do we get for `COc1ccccc1C1CCN(c2ccc(/C=C/C(=N)Nc3ccc(Cl)cc3)cc2)CC1` ?
5.00 to 7.30

What do we get for `N#Cc1ccc(-c2ccc(/C=C/C(=N)Nc3ccc(Cl)cc3)cc2)cc1` ?
> 8.00

What do we get for `CC(C)N1CCN(c2ccc(/C=C/C(=N)Nc3ccc(Cl)cc3)c(Cl)c2)CC1` ?
5.00 to 7.30

What do we get for `CC(C)(C)OC(=O)N1CCN(Cc2ccc(-c3ccc(/C=C/C(=N)Nc4ccc(Cl)cc4)cc3)cc2)CC1` ?
5.00 to 7.30

What do we get for `N=C(/C=C/c1ccc(Cl)c(Cl)c1)Nc1ccc(Cl)cc1` ?
5.00 to 7.30

What do we get for `N=C(Nc1ccc(Cl)cc1)c1ccc2cc(N3CCN(Cc4ccccc4)CC3)ccc2c1` ?
7.30 to 8.00

* * *

- Target Under Test: human Dopamine D1 receptor (Homo sapiens, UniProt P21728)
- Construct: expressed in transfected cells; host or cells: Ltk- cells (mouse fibroblasts), membrane preparation
- Measurement Notes: radioligand binding competition assay, displacement of [3H]SCH 23390 from D1 receptor (Ltk-cells membranes)
- Test Conditions: human D1 receptor, [3H] SCH 23390; read-out: Ki (D1) value
Parameter Measured: Ki (nM)
Response body: numeric value in nM, unit text excluded.

Report Ki for N=C(/C=C/c1ccc(N2CCNCC2)cc1Cl)Nc1ccc(Cl)cc1 [Example 42] please.
0.9

* * *

This section presents compounds with their documented pKi values.
- Target Under Test: human Dopamine D1 receptor (Homo sapiens, UniProt P21728)
- Construct: expressed in transfected cells; host or cells: Ltk- cells (mouse fibroblasts), membrane preparation
- Measurement Notes: radioligand binding competition assay, displacement of [3H]SCH 23390 from D1 receptor (Ltk-cells membranes);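 for D1 binding and D2:D1 Selectivity: under 5 nM class also requires D2 to D1 selectivity above 500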
- Test Conditions: class combines Ki (D1) and, for A and B, D2:D1 selectivity (Ki D2 / Ki D1); read-out: D1 binding and D2:D1 Selectivity
pKi: −log10 of the molar value.

Field: example entries. Status: answers known.
> print(dat)
                                   compound  parameter.measured     obs.value
1    CC(C)c1ccc(/C=C/C(=N)Nc2ccc(Cl)cc2)cc1                 pKi  7.30 to 8.00
2    N=C(/C=C/c1ccc2c(c1)OCO2)Nc1ccc(Cl)cc1                 pKi  7.30 to 8.00
3  CO/N=C(/C)c1ccc(-c2ccc(/C=C/C(=N)Nc3ccc(Cl)cc3)cc2)cc1                 pKi  5.00 to 7.30
4        Cc1ccc(/C=C/C(=N)Nc2ccc(Cl)cc2)cc1                 pKi  5.00 to 7.30
5           COc1ccc(NC(=N)/C=C/c2ccccc2)cc1                 pKi  5.00 to 7.30

Report pKi for `N=C(/C=C/c1ccc(N2CCNCC2)cc1Cl)Nc1ccc(Cl)cc1` please.
> 8.30

What do we get for `N=C(/C=C/c1ccc(N2CCNCC2)cc1Cl)Nc1ccc(O)c(Cl)c1` ?
5.00 to 7.30

What do we get for `C[C@H]1CNCCN1c1ccc(/C=C/C(=N)Nc2ccc(Cl)cc2)c(Cl)c1` ?
> 8.30

What do we get for `N=C(/C=C/c1ccc(-c2cccc(C(=O)O)c2)cc1)Nc1ccc(Cl)cc1` ?
5.00 to 7.30

What do we get for `CCn1c2ccccc2c2cc(/C=C/C(=N)Nc3ccc(Cl)cc3)ccc21` ?
5.00 to 7.30

What do we get for CCC1CCCCN1c1ccc(/C=C/C(=N)Nc2ccc(Cl)cc2)cc1 (stereo not shown) ?
7.30 to 8.00

What do we get for `COc1ccc(/C=C/C(=N)Nc2ccc(OC)c(OC)c2)cc1` ?
5.00 to 7.30

What do we get for `N=C(/C=C/c1ccc(-c2cccc([N+](=O)[O-])c2)cc1)Nc1ccc(Cl)cc1` ?
7.30 to 8.00

What do we get for COC(=O)C1CC1CN1CCN(c2ccc(/C=C/C(=N)Nc3ccc(Cl)cc3)c(Cl)c2)CC1 (stereo not shown) ?
7.30 to 8.00

What do we get for `N=C(/C=C/c1ccc(-c2cc(F)cc(F)c2)cc1)Nc1ccc(Cl)cc1` ?
5.00 to 7.30

What do we get for `N=C(/C=C/c1ccc(-c2ccc(CO)cc2)cc1)Nc1ccc(Cl)cc1` ?
5.00 to 7.30

What do we get for `COc1ccc(/C=C\C(=N)Nc2ccc(Cl)cc2)c(F)c1` ?
5.00 to 7.30

What do we get for `COc1ccc(/C=C/C(=N)Nc2ccc(Cl)cc2)cc1Cl` ?
7.30 to 8.00

What do we get for `CN1CCN(c2ccc3cc(C(=N)Nc4ccc(Cl)cc4)ccc3c2)CC1` ?
5.00 to 7.30
